- ASSAY_OVERVIEW: Chemical stability of the compound in potassium phosphate buffer at pH 6.7 assessed as compound remaining at 1 x 10^-5 M after 120 mins by HPLC analysis
- Format: physicochemical
- RECORDED_CONDITIONS: read-out: Stability

MOLECULE	remaining at 2 h, 10 µM
O=c1c2cc(OS(=O)(=O)O)c(OS(=O)(=O)O)cc2oc2cc(OS(=O)(=O)O)c([C@@H]3O[C@H](COS(=O)(=O)O)[C@@H](OS(=O)(=O)O)[C@H](OS(=O)(=O)O)[C@H]3OS(=O)(=O)O)c(O)c12 [MANGIFERIN HEPTASULFATE]	> 85%

###

- ASSAY_OVERVIEW: Chemical stability of the compound in phosphate buffered saline at pH 7.4 assessed as compound remaining at 1 x 10^-5 M after 120 mins by HPLC analysis
- Format: physicochemical
- RECORDED_CONDITIONS: read-out: Stability

COMPOUND	remaining at 2 h, 10 µM
O=c1c2cc(OS(=O)(=O)O)c(OS(=O)(=O)O)cc2oc2cc(OS(=O)(=O)O)c([C@@H]3O[C@H](COS(=O)(=O)O)[C@@H](OS(=O)(=O)O)[C@H](OS(=O)(=O)O)[C@H]3OS(=O)(=O)O)c(O)c12 [MANGIFERIN HEPTASULFATE]	> 85%

###

- Test system: Plasma
- ASSAY_OVERVIEW: Anticoagulant activity in human plasma assessed as concentration required to double the activated partial thromboplastin time by coagulometer analysis
- Format: functional
Collected 2aPTT values appear next to each entry.

MOLECULE	SIGN_QUALIFIER	2aPTT / mM
O=c1c2ccc(OS(=O)(=O)O)cc2oc2cc(OS(=O)(=O)O)ccc12	>	5
O=c1c2ccc(O[C@@H]3O[C@H](COS(=O)(=O)O)[C@@H](OS(=O)(=O)O)[C@H](OS(=O)(=O)O)[C@H]3OS(=O)(=O)O)cc2oc2cc(O[C@@H]3O[C@H](COS(=O)(=O)O)[C@@H](OS(=O)(=O)O)[C@H](OS(=O)(=O)O)[C@H]3OS(=O)(=O)O)ccc12	=	0.06
O=c1c2cc(OS(=O)(=O)O)c(OS(=O)(=O)O)cc2oc2cc(OS(=O)(=O)O)c([C@@H]3O[C@H](COS(=O)(=O)O)[C@@H](OS(=O)(=O)O)[C@H](OS(=O)(=O)O)[C@H]3OS(=O)(=O)O)c(O)c12 [MANGIFERIN HEPTASULFATE]	=	0.21
O=c1c2cc(O)c(O)cc2oc2cc(O)c([C@@H]3O[C@H](COS(=O)(=O)O)[C@@H](OS(=O)(=O)O)[C@H](OS(=O)(=O)O)[C@H]3OS(=O)(=O)O)c(O)c12	=	0.39

###

- ASSAY_OVERVIEW: Chemical stability of the compound in sodium boric acid at pH 9.1 assessed as compound remaining at 1 x 10^-5 M after 120 mins by HPLC analysis
- Type: physicochemical
- RECORDED_CONDITIONS: sodium boric acid buffer, read-out: Stability
METRIC: remaining at 2 h, 10 µM

COMPOUND	RESULT
O=c1c2cc(OS(=O)(=O)O)c(OS(=O)(=O)O)cc2oc2cc(OS(=O)(=O)O)c([C@@H]3O[C@H](COS(=O)(=O)O)[C@@H](OS(=O)(=O)O)[C@H](OS(=O)(=O)O)[C@H]3OS(=O)(=O)O)c(O)c12 [MANGIFERIN HEPTASULFATE]	> 85%

###

- ASSAY_OVERVIEW: Stability in RPMI medium at 37 degC assessed as compound degradation incubated for 24 hrs
- Type: physicochemical
- RECORDED_CONDITIONS: RPMI medium; read-out: Drug degradation
METRIC: degraded at 24 h (%)

>>> print(df.to_string())
                 molecular_string  numeric_readout
0  Oc1ccc(/C=C/c2cc(O)cc(O)c2)cc1               50

Taken from ChEMBL document CHEMBL2157951.
